Values compiled from PubChem BioAssay (NCI).

# TEST_SUMMARY: NCI Yeast Anticancer Drug Screen. Data for the sgs1 mgt1 strain (AID 161)
# CONDITION_CONTEXT: S. cerevisiae sgs1 mgt1 strain, at 50.0 µM (retest, dose inferred, filed as 5.0), stronger effect = higher value
# Method: Growth inhibition of yeast strains with defined genetic alterations is measured as a screen for potential anti-cancer activity. Selected strains with alterations in DNA damage repair or cell cycle control were exposed to compounds and growth inhibition was measured relative to vehicle treated controls. The strain used in this assay is sgs1 mgt1
About 79,000 compounds went through this panel and 15% of them were active in at least one assay; those are over-represented in the sample as a whole.
Please use True whenever growth inhibition is not below 90%, and False whenever it is.

Solved cases (8 shown):
- COMPOUND: "Cc1ccc(NC(=O)CSC(N)=O)cc1"
  CLASS_ASSIGNMENT: "True"
- COMPOUND: "O=C(Nc1cccc(Br)c1)Oc1cccc2cccnc12"
  CLASS_ASSIGNMENT: "True"
- COMPOUND: "CCCCCCCCCCCCCC(=O)N1CCOCC1"
  CLASS_ASSIGNMENT: "True"
- COMPOUND: "CCOC(=O)NCCCc1ccc2oc3ccccc3c2c1"
  CLASS_ASSIGNMENT: "True"
- COMPOUND: "COC(=O)c1ccccc1C#Cc1ccccc1C(=O)OC"
  CLASS_ASSIGNMENT: "False"
- COMPOUND: "O=CNNC(=O)Nc1ccc(Cl)cc1"
  CLASS_ASSIGNMENT: "False"
- COMPOUND: "Cc1cccc2c1C1OC(=O)C3CCC=C2C31 (centres undefined)"
  CLASS_ASSIGNMENT: "False"
- COMPOUND: "C[Si](C)(c1ccccc1)C1CC(=O)CC(=O)C1"
  CLASS_ASSIGNMENT: "False"

Q: Hi, just wondering whether CCOP(=O)(C=C=C1CCC2[C@@H]3CCc4cc(OC)ccc4C3CC[C@]12C)OCC (some centres undefined) shows growth inhibition of 90% or higher.
A: True

Q: Check this compound for growth inhibition at or above 90%: O=[N+]([O-])c1ccc(-c2nc3ccc(F)cc3[nH]2)o1
A: True

Q: Form field: growth inhibition at least 90%? Entry: Cn1cnc([N+](=O)[O-])c1Sc1nc2cccnc2s1
A: False
